- tested_target: Inositol monophosphatase 1 (Bos taurus)
- Sequence (P20456 whole entry): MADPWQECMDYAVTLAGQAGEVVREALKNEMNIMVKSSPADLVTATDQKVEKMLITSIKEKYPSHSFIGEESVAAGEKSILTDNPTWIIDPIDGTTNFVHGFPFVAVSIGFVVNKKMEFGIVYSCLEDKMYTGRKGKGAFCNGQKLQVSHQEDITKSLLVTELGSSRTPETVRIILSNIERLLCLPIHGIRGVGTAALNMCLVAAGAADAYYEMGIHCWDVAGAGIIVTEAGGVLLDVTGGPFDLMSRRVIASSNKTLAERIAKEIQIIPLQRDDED
- assay_overview: Inhibitory activity against myo-inositol-1-phosphatase
# IC50 annotations
parameter_measured: IC50

CC(C)OP(=O)(O)O[C@@H]1[C@H](O)C[C@@H](O)C[C@H]1OCCCCc1ccccc1O : 50 µM
O=P(O)(O)O[C@@H]1[C@H](O)C[C@@H](O)C[C@H]1OCCCCc1ccccc1O : 0.3 µM
O=P(O)(O)O[C@@H]1[C@H](O)C[C@@H](O)C[C@H]1OCCCc1ccccc1 : 0.8 µM
CP(C)(=O)O[C@@H]1[C@H](O)C[C@@H](O)C[C@H]1OCCCCc1ccccc1O : > 300 µM
CC(=O)NS(=O)(=O)O[C@@H]1[C@H](O)C[C@@H](O)C[C@H]1OCCCCC1CCCCC1=O (stereo not given in full) : > 300 µM
